Origin of measurements: paper PMC10451623

Molecular target: PPARγ-LBD (Homo sapiens, UniProt P37231)
Sequence (P37231 231-505): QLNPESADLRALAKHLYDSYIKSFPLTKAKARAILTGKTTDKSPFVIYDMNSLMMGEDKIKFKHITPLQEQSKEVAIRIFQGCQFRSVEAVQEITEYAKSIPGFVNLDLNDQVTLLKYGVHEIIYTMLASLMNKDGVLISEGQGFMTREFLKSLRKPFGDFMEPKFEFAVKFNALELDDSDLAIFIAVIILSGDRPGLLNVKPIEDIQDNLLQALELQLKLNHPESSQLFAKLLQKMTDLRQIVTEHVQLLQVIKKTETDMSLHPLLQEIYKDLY
Test: TR-FRET SRC1 coactivator recruitment assay
Format: biochemical
Parameters: PPARγ-LBD (amino acids 203–477 in isoform 1); made in house; host or cells: Rosetta (DE3) pLysS (E. coli)
Details: SRC1 peptide, read-out: EC50, SRC1 recruitment to PPARγ-LBD
I'd be grateful if you could share measured EC50 for these entries.
Answers are plain numbers, in µM.

CCO[C@@H](Cc1ccc(OCCn2c(C)ccc2-c2ccc(SC)cc2)cc1)C(=O)O: 3.44
O=C(O)CCCc1cc2cc(Cl)ccc2n1S(=O)(=O)c1ccc2ncsc2c1: 7.57

Kindly review the next compound as well.
Form field EC50 for item CSc1ccc(C(=O)/C=C/c2cc(C)c(OC(C)(C)C(=O)O)c(C)c2)cc1 on PPARγ-LBD (Homo sapiens, UniProt P37231): 11.8

###

For each entry below, report its EC50 value.
Target: PPARδ-LBD (Homo sapiens, UniProt Q03181)
Sequence (Q03181 170-441): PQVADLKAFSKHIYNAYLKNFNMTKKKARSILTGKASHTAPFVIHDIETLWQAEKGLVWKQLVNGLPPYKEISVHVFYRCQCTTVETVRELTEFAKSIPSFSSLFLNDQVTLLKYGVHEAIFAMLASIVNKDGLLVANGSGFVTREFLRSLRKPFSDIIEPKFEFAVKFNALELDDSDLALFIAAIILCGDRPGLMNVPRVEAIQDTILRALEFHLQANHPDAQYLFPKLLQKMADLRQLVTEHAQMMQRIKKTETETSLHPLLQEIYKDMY
Experiment: TR-FRET PGC1α coactivator recruitment assay
Format: biochemical
Design: PPARδ-LBD (amino acids 170–441); made in house; host or cells: Rosetta (DE3) pLysS (E. coli)
Conditions: TR-FRET; PGC1α peptide; read-out: EC50, PGC1α recruitment to PPARδ-LBD
One number for each entry, in µM.

O=C(O)CCCc1cc2cc(Cl)ccc2n1S(=O)(=O)c1ccc2ncsc2c1: 3.86

Next up:
Record CCO[C@H](COc1ccc(C(F)(F)F)cc1)CSc1ccc(OCC(=O)O)c(C)c1 . Reported EC50: 0.0307

###

Target: PPARδ-LBD (Homo sapiens, UniProt Q03181)
Sequence (Q03181 170-441): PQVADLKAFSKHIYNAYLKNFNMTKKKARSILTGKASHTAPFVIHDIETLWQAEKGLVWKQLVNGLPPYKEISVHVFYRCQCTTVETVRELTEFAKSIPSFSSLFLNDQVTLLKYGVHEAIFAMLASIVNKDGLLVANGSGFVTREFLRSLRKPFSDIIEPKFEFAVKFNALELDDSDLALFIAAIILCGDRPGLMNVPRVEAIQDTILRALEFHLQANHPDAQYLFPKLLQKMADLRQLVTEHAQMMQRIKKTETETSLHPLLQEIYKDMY
Assay: Thermal stability assay using circular dichroism spectroscopy
Assay type: binding
Set-up: PPARδ-LBD (amino acids 170–441); His tag (pET28a) (N); made in house; host or cells: Rosetta (DE3) pLysS (E. coli)
Settings: CD at 222 nm; 10 µM LBD; GW501516 at 50 µM
REPORTED_ENDPOINT: Effect on Tm of PPARδ-LBD (in words)

O=C(O)CCCc1cc2cc(Cl)ccc2n1S(=O)(=O)c1ccc2ncsc2c1: increased the Tm values
CCO[C@H](COc1ccc(C(F)(F)F)cc1)CSc1ccc(OCC(=O)O)c(C)c1: increased the Tm values
